system: Phytophthora capsici (Pc); experiment: In vitro pathogen growth inhibition assay, Pc; format: cell-based; settings: 48 h, ≥90% inhibition, 48 hours vs 2% DMSO control, read-out: Compound Concentration (ppm) sufficient for ≥90% inhibition of growth, Pc
Outcome measure: IC90

Some entries whose results are on file:
COc1ccc(F)cc1[C@H](Cn1c(=O)n(C(C)(C)C(=O)N2CCCC2)c(=O)c2c(C)c(-n3nccn3)sc21)OC1CCOCC1 = 10 µg/mL
CCOC(=O)c1sc2c(c1C)c(=O)n(C(C)(C)C(=O)NC(C)C)c(=O)n2C[C@H](OC(C)C)c1ccccc1OC = > 50 µg/mL
COc1ccc(F)cc1[C@H](Cn1c(=O)n(C(C)(C)C(=O)NC(C)C)c(=O)c2c(C)c(-n3cccn3)sc21)OC1CCOCC1 = > 50 µg/mL
COc1ccc(F)cc1[C@H](Cn1c(=O)n(C(C)(C)C(N)=O)c(=O)c2c(C)c(-n3cccn3)sc21)O[C@H]1CC[C@@H](O)CC1 = > 50 µg/mL
COc1ccc(F)cc1[C@H](Cn1c(=O)n(C(C)(C)C(=O)NC(C)C)c(=O)c2c(C)c(-c3ncco3)sc21)OC1CCC(=O)CC1 = > 50 µg/mL

Moving on to the next compound.
Tell me measured IC90 for `CCNC(=O)C(C)(C)n1c(=O)c2c(C)c(-c3ncco3)sc2n(C[C@H](O[C@H]2CC[C@@H](O)CC2)c2ccccc2OC)c1=O` please.
> 50 µg/mL

---

system: Rhizoctonia solani (Rs); assay: In vitro pathogen growth inhibition assay, Rs (mycelial plugs); type: cell-based; details: Rhizoctonia solani, 48 h, ≥90% growth inhibition; mycelial plugs; 48 hours; vs 2% DMSO control; read-out: Compound Concentration (ppm) sufficient for ≥90% inhibition of Rs
Entries annotated with measured IC90
Numbers only; they are read as µg/mL.

Cc1ccc(F)cc1[C@H](Cn1c(=O)n(C(C)(C)C(=O)NC(C)C)c(=O)c2c(C)c(-n3nccn3)sc21)OCCO [Compound I-245] = 0.08

Write down measured IC90 (Rhizoctonia solani (Rs)) for this molecule. CCOC(=O)c1sc2c(c1C)c(=O)n(C(C)(C)C(=O)NC(C)C)c(=O)n2C[C@H](OCCOC)c1cc(F)ccc1OC [Compound I-177]
10

---

tested on: Botrtyis cinerea (Bc); assay: In vitro pathogen growth inhibition assay, Bc; format: cell-based; conditions: 48 h, ≥90% growth inhibition; 48 hours; vs 2% DMSO control; read-out: Compound Concentration (ppm) sufficient for ≥90% inhibition of Bc
Outcome measure: IC90 (µg/mL)
Numbers only; they are read as µg/mL.

Some entries whose results are on file:
CCNC(=O)[C@@H](C)n1c(=O)c2c(C)c(-n3cccn3)sc2n(C[C@H](OCCC#N)c2cc(F)ccc2OC)c1=O [Compound I-295] = 2
COc1ccc(F)cc1[C@@H](O)Cn1c(=O)n(C(C)(C)C(=O)N2CCCC2)c(=O)c2c(C)c(-n3nccn3)sc21 [Compound I-214] = 2
COc1ccc(F)cc1[C@H](Cn1c(=O)n(C(C)(C)C(=O)NC(C)C)c(=O)c2c(C)c(-n3nccn3)sc21)OCC(C)(C)C#N [Compound I-213] = 0.4
COc1ccc(F)cc1[C@H](Cn1c(=O)n([C@@H](C)C(=O)N2CCCC2)c(=O)c2c(C)c(-n3nccn3)sc21)OCCC#N [Compound I-201] = 2
COc1ccccc1[C@H](Cn1c(=O)n(C(C)(C)C(=O)N2CCCC2)c(=O)c2c(C)c(-n3nccn3)sc21)OCCC#N [Compound I-196] = 2

Tell me measured IC90 for Cc1c(-n2nccn2)sc2c1c(=O)n(C(C)(C)C(=O)NC(C)C)c(=O)n2C[C@H](O[C@H]1CC[C@@H](O)CC1)c1cc(F)ccc1OCC#N [Compound I-268] please.
2

Tell me measured IC90 for COc1ccc(F)cc1[C@H](Cn1c(=O)n(C(C)(C)C(=O)NC(C)C)c(=O)c2c(C)c(-n3nccn3)sc21)O[C@H]1CC[C@@H](O)CC1 [Compound I-264] please.
0.4

Tell me measured IC90 for COc1ccc(F)cc1[C@H](Cn1c(=O)n(C(C)(C)C(=O)NC(C)C)c(=O)c2c(C)c(-n3cccn3)sc21)OCC#N [Compound I-257] please.
2

Tell me measured IC90 for COc1ccc(F)cc1[C@H](Cn1c(=O)n([C@H](C)C(N)=O)c(=O)c2c(C)c(-n3nccn3)sc21)OCC(C)(C)C#N [Compound I-255] please.
2

Tell me measured IC90 for COc1ccc(F)cc1[C@H](Cn1c(=O)n([C@H](C)C(=O)N(C)C(C)C)c(=O)c2c(C)c(-n3cccn3)sc21)OCCO [Compound I-250] please.
2

Tell me measured IC90 for COCCO[C@@H](Cn1c(=O)n([C@H](C)C(=O)NC(C)C)c(=O)c2c(C)c(-n3nccn3)sc21)c1cc(F)ccc1OC [Compound I-171] please.
0.08
